Provenance of the data: paper PMC6476926

Experiment: Cytotoxicity, MTT method, MT-4 cells
Details: human, MT-4 cells (mock-infected)
MEASURED_PARAMETER: CC50 (µM)

[[record]]
compound = "COc1ccc(C(=O)Nc2ccc(-n3nc4cc(Cl)c(Cl)cc4n3)cc2)cc1 [8c]"
measured_parameter = "CC50"
measurement_units = "µM"
rel = ">"
value_reported = 100

[[record]]
compound = "O=C1Nc2ccc(Cl)cc2[C@@](C#CC2CC2)(C(F)(F)F)O1 [EFV, Efavirenz, reference compound]"
measured_parameter = "CC50"
measurement_units = "µM"
rel = "="
value_reported = 40


* * *

Test: Cytotoxicity, MTT method, BHK cells
Settings: Syrian hamster (Mesocricetus auratus), BHK cells (BHK-21, mock-infected)
MEASURED_PARAMETER: CC50

[[record]]
smiles_representation = "COc1ccc(C(=O)Nc2ccc(-n3nc4cc(Cl)c(Cl)cc4n3)cc2)cc1"
measured_parameter = "CC50"
value_reported = "> 100 µM"


* * *

Test: Cytotoxicity, MTT method, MT-4 cells
Details: human
MEASURED_PARAMETER: CC50

[[record]]
molecule = "O=C(Nc1ccc(-n2nc3cc(Cl)c(Cl)cc3n2)cc1)c1ccc(C(F)(F)F)cc1"
measured_parameter = "CC50"
value_reported = "> 100 µM"

[[record]]
molecule = "CC(=O)N(C(C)=O)c1ccc(-n2nc3cc(Cl)c(Cl)cc3n2)cc1"
measured_parameter = "CC50"
value_reported = "33 µM"

[[record]]
molecule = "O=C(Nc1ccc(-n2nc3cc(Cl)c(Cl)cc3n2)cc1)Nc1cccc2ccccc12 [10k]"
measured_parameter = "CC50"
value_reported = "> 100 µM"

[[record]]
molecule = "O=C(Nc1ccc(F)cc1)Nc1ccc(-n2nc3cc(Cl)c(Cl)cc3n2)cc1 [10i]"
measured_parameter = "CC50"
value_reported = "> 100 µM"

[[record]]
molecule = "CCC(=O)N(C(=O)CC)c1ccc(-n2nc3cc(Cl)c(Cl)cc3n2)cc1"
measured_parameter = "CC50"
value_reported = "15 µM"

[[record]]
molecule = "CCCC(=O)Nc1ccc(-n2nnc3cc(Cl)c(Cl)cc32)cc1"
measured_parameter = "CC50"
value_reported = "60 µM"

[[record]]
molecule = "O=C(Nc1ccc(-n2nc3cc(Cl)c(Cl)cc3n2)cc1)c1ccccc1"
measured_parameter = "CC50"
value_reported = "> 100 µM"

[[record]]
molecule = "CCCNC(=O)Nc1ccc(-n2nc3cc(Cl)c(Cl)cc3n2)cc1 [10b]"
measured_parameter = "CC50"
value_reported = "> 100 µM"

[[record]]
molecule = "O=C(Nc1ccc(-n2nnc3cc(Cl)c(Cl)cc32)cc1)c1ccc([N+](=O)[O-])cc1"
measured_parameter = "CC50"
value_reported = "> 100 µM"

[[record]]
molecule = "O=C(Nc1ccc(-n2nnc3cc(Cl)c(Cl)cc32)cc1)c1ccccc1"
measured_parameter = "CC50"
value_reported = "> 100 µM"

[[record]]
molecule = "O=C(Nc1ccc(-n2nc3cc(Cl)c(Cl)cc3n2)cc1)c1ccc([N+](=O)[O-])cc1"
measured_parameter = "CC50"
value_reported = "> 100 µM"

[[record]]
molecule = "O=C(NCc1ccccc1)Nc1ccc(-n2nc3cc(Cl)c(Cl)cc3n2)cc1 [10j]"
measured_parameter = "CC50"
value_reported = "> 100 µM"

[[record]]
molecule = "COc1cc(C(=O)Nc2ccc(-n3nc4cc(Cl)c(Cl)cc4n3)cc2)cc(OC)c1OC"
measured_parameter = "CC50"
value_reported = "63 µM"

[[record]]
molecule = "CCCC(=O)N(C(=O)CCC)c1ccc(-n2nnc3cc(Cl)c(Cl)cc32)cc1"
measured_parameter = "CC50"
value_reported = "35 µM"

[[record]]
molecule = "CC(=O)Nc1ccc(-n2nc3cc(Cl)c(Cl)cc3n2)cc1"
measured_parameter = "CC50"
value_reported = "> 100 µM"

[[record]]
molecule = "O=C(Nc1ccc(-n2nc3cc(Cl)c(Cl)cc3n2)cc1)c1ccc(Cl)cc1"
measured_parameter = "CC50"
value_reported = "> 100 µM"

[[record]]
molecule = "O=C(Nc1ccc(-n2nnc3cc(Cl)c(Cl)cc32)cc1)c1ccc(Cl)cc1"
measured_parameter = "CC50"
value_reported = "> 100 µM"

[[record]]
molecule = "N#Cc1ccc(C(=O)Nc2ccc(-n3nnc4cc(Cl)c(Cl)cc43)cc2)cc1"
measured_parameter = "CC50"
value_reported = "> 100 µM"

[[record]]
molecule = "CC(=O)Nc1ccc(-n2nnc3cc(Cl)c(Cl)cc32)cc1"
measured_parameter = "CC50"
value_reported = "35 µM"

[[record]]
molecule = "Nc1ccc(-n2nnc3cc(Cl)c(Cl)cc32)cc1"
measured_parameter = "CC50"
value_reported = "> 100 µM"

